Test system: MCF7
ASSAY REMARKS: Cytotoxicity against human MCF7 cells assessed as reduction in cell viability incubated for 48 hrs by MTT assay
Assay type: functional, cell-based
CONDITION NOTES: MCF7, 48 h
pIC50: −log10 of the molar value.
VALUE KIND: pIC50

INSERT INTO measurements (compound, target_or_system, reported) VALUES
  ('O=C1c2cccc3c(N4CCC(CCO)CC4)ccc(c23)C(=O)N1CCCNCCNCCCN1C(=O)c2cccc3c(N4CCC(CCO)CC4)ccc(c23)C1=O', 'MCF7', 4.96),
  ('Cl.Cl.Cl.Cl.O=C1c2cccc3c(N4CCC(O)CC4)ccc(c23)C(=O)N1CCCNCCNCCCN1C(=O)c2cccc3c(N4CCC(O)CC4)ccc(c23)C1=O', 'MCF7', 4.43),
  ('O=C1c2cccc3c(N4CCC[C@@H]4CO)ccc(c23)C(=O)N1CCCNCCNCCCN1C(=O)c2cccc3c(N4CCC[C@@H]4CO)ccc(c23)C1=O', 'MCF7', 4.03),
  ('O=C1c2cccc3c(N4CC[C@@H](O)C4)ccc(c23)C(=O)N1CCCNCCNCCCN1C(=O)c2cccc3c(N4CC[C@@H](O)C4)ccc(c23)C1=O', 'MCF7', 4.13),
  ('O=C1c2cccc3c(N4CCC[C@H]4CO)ccc(c23)C(=O)N1CCCNCCNCCCN1C(=O)c2cccc3c(N4CCC[C@H]4CO)ccc(c23)C1=O', 'MCF7', 3.83),
  ('CN(C)CCN1C(=O)c2cccc3cc(N)cc(c23)C1=O [AMONAFIDE]', 'MCF7', 5.17),
  ('O=C1c2cccc3c(N4CCC(CO)CC4)ccc(c23)C(=O)N1CCCNCCNCCCN1C(=O)c2cccc3c(N4CCC(CO)CC4)ccc(c23)C1=O', 'MCF7', 4.64),
  ('Cl.Cl.Cl.Cl.O=C1c2cccc3c(N4CCN(CCO)CC4)ccc(c23)C(=O)N1CCCNCCNCCCN1C(=O)c2cccc3c(N4CCN(CCO)CC4)ccc(c23)C1=O', 'MCF7', 4.70),
  ('O=C1c2cccc3c(N4CC[C@H](O)C4)ccc(c23)C(=O)N1CCCNCCNCCCN1C(=O)c2cccc3c(N4CC[C@H](O)C4)ccc(c23)C1=O', 'MCF7', 3.85);
